test system: LXF-289; assay: relative viability (nuclei count vs DMSO), 5 days (fraction); higher = more cells survive; conditions: first compound 0.5 µM
Reported relative viability values for the following compounds.

{"compound": "COc1cc2nccc(Oc3ccc(NC(=O)Nc4cc(C)on4)c(Cl)c3)c2cc1OC [Tivozanib] + CC1(C)CCC(c2ccc(Cl)cc2)=C(CN2CCN(c3ccc(C(=O)NS(=O)(=O)c4ccc(N[C@H](CCN5CCOCC5)CSc5ccccc5)c(S(=O)(=O)C(F)(F)F)c4)cc3)CC2)C1 [Navitoclax] (partner 0.5 µM)", "relative viability": 0.926}
{"compound": "COc1cc2nccc(Oc3ccc(NC(=O)Nc4cc(C)on4)c(Cl)c3)c2cc1OC [Tivozanib] + Cc1nc(NC(=O)N2CCC[C@H]2C(N)=O)sc1-c1ccnc(C(C)(C)C(F)(F)F)c1 [Alpelisib] (partner 2 µM)", "relative viability": 1.02}
{"compound": "Nc1ccn([C@@H]2O[C@H](CO)[C@@H](O)[C@@H]2O)c(=O)n1 [Cytarabine] + COc1cc2c(Oc3ccc(NC(=O)C4(C(=O)Nc5ccc(F)cc5)CC4)cc3F)ccnc2cc1OCCCN1CCOCC1 [Foretinib] (partner 0.25 µM)", "relative viability": 0.299}
{"compound": "Nc1ccn([C@@H]2O[C@H](CO)[C@@H](O)[C@@H]2O)c(=O)n1 [Cytarabine] + CC(C)C[C@H](NC(=O)[C@H](Cc1ccccc1)NC(=O)c1cnccn1)B(O)O [Bortezomib] (partner 0.002 µM)", "relative viability": 0.258}

* * *

tested on: LCLC-97TM1; experiment: relative viability (nuclei count vs DMSO), 5 days (fraction); higher = more cells survive; details: first compound 0.08 µM

{"molecule": "Cc1cnc(-c2cnc(NCCNc3ccc(C#N)cn3)nc2-c2ccc(Cl)cc2Cl)[nH]1 + CC(=O)c1c(C)c2cnc(Nc3ccc(N4CCNCC4)cn3)nc2n(C2CCCC2)c1=O [Palbociclib] (partner 0.5 µM)", "test_target": "LCLC-97TM1", "relative viability": 0.282}
{"molecule": "O=c1[nH]c2ccccc2n1C1CCN(CCCC(c2ccc(F)cc2)c2ccc(F)cc2)CC1 [Pimozide] + CC(=O)c1c(C)c2cnc(Nc3ccc(N4CCNCC4)cn3)nc2n(C2CCCC2)c1=O [Palbociclib] (partner 0.5 µM)", "test_target": "LCLC-97TM1", "relative viability": 0.203}
{"molecule": "Cc1cnc(-c2cnc(NCCNc3ccc(C#N)cn3)nc2-c2ccc(Cl)cc2Cl)[nH]1 + Nc1nc2[nH]cc(CCc3ccc(C(=O)N[C@@H](CCC(=O)O)C(=O)O)cc3)c2c(=O)[nH]1 [Pemetrexed] (partner 0.2 µM)", "test_target": "LCLC-97TM1", "relative viability": 0.176}
{"molecule": "Cc1cnc(-c2cnc(NCCNc3ccc(C#N)cn3)nc2-c2ccc(Cl)cc2Cl)[nH]1 + N=C(N)NC(=N)NCCc1ccccc1 [Phenformin] (partner 250 µM)", "test_target": "LCLC-97TM1", "relative viability": 0.481}
{"molecule": "O=c1[nH]c2ccccc2n1C1CCN(CCCC(c2ccc(F)cc2)c2ccc(F)cc2)CC1 [Pimozide] + COc1cccc2cc(-c3nc([C@H]4CC[C@H](C(=O)O)CC4)n4ncnc(N)c34)[nH]c12 [OSI-027] (partner 0.5 µM)", "test_target": "LCLC-97TM1", "relative viability": 0.488}
{"molecule": "Cc1cnc(-c2cnc(NCCNc3ccc(C#N)cn3)nc2-c2ccc(Cl)cc2Cl)[nH]1 + CC(C)C[C@H](NC(=O)[C@H](Cc1ccccc1)NC(=O)c1cnccn1)B(O)O [Bortezomib] (partner 0.002 µM)", "test_target": "LCLC-97TM1", "relative viability": 0.844}
{"molecule": "O=c1[nH]c2ccccc2n1C1CCN(CCCC(c2ccc(F)cc2)c2ccc(F)cc2)CC1 [Pimozide] + CC1(C)CCC(c2ccc(Cl)cc2)=C(CN2CCN(c3ccc(C(=O)NS(=O)(=O)c4ccc(N[C@H](CCN5CCOCC5)CSc5ccccc5)c(S(=O)(=O)C(F)(F)F)c4)cc3)CC2)C1 [Navitoclax] (partner 0.5 µM)", "test_target": "LCLC-97TM1", "relative viability": 0.527}
{"molecule": "O=c1[nH]c2ccccc2n1C1CCN(CCCC(c2ccc(F)cc2)c2ccc(F)cc2)CC1 [Pimozide] + Nc1nc2[nH]cc(CCc3ccc(C(=O)N[C@@H](CCC(=O)O)C(=O)O)cc3)c2c(=O)[nH]1 [Pemetrexed] (partner 0.2 µM)", "test_target": "LCLC-97TM1", "relative viability": 0.2}
{"molecule": "Cc1cnc(-c2cnc(NCCNc3ccc(C#N)cn3)nc2-c2ccc(Cl)cc2Cl)[nH]1 + Cc1nc(NC(=O)N2CCC[C@H]2C(N)=O)sc1-c1ccnc(C(C)(C)C(F)(F)F)c1 [Alpelisib] (partner 2 µM)", "test_target": "LCLC-97TM1", "relative viability": 0.28}
{"molecule": "Cc1cnc(-c2cnc(NCCNc3ccc(C#N)cn3)nc2-c2ccc(Cl)cc2Cl)[nH]1 + CCNC(=O)c1noc(-c2cc(C(C)C)c(O)cc2O)c1-c1ccc(CN2CCOCC2)cc1 [Luminespib] (partner 0.01 µM)", "test_target": "LCLC-97TM1", "relative viability": 0.748}

The reported numbers originate from the supplement of paper PMC10307832.
